biological target: SpHof1; experiment: SPOT peptide array binding signal intensity (averaged, normalized) (arbitrary units (background-subtracted, floor 0; scale differs between SH3 domains)); higher = stronger binding of the SH3 domain to the peptide
measurement type: SPOT peptide array binding signal intensity
Numbers only.

VPPVPLPFGIPPFPM : 4

Now let's try a different one.
According to the records, this binder `DAPASKPSVPPRNYF` displays SPOT peptide array binding signal intensity of 1
